target: T1, Abeta42 beta amyloid peptide (UniProt P05067 672-713); assay: competition ELISA, purified antibody 0.003-16 ug/ml against biotinylated 6E10 (chimeric mouse 6E10) on coated beta amyloid, n=2
T1 construct: domain: Abeta42 beta amyloid peptide; also called Aβ42; Aβ
T1 sequence (P05067 672-713 limits assumed): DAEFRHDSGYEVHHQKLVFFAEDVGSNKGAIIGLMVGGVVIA
RESULT TYPE: IC50 (µg/mL)
Your answer is read as µg/mL, so omit the unit and give the number.

If you can, please state the reported IC50 value of Composite human antibody variant VH5/VK2 (antibody, human IgG1, V domains shown, Human IgG1/kappa (pANT15/pANT13), NS0 cells) VH: QVQLVQSGAEVKKPGASVKVSCTASGFNIKDTYIHWVRQARGQRLEWIGRFDPVNVNTRYDSRFRGRVTITSDASTSTAYMELSSLRSEDTAVYYCSRSYYNGRRRFTYWGQGTLVTVSS VL: DIVMTQSPSSLTASVGDRVTITCKASQSLLSSGNQKNYLTWYQQKPGQPPKLLIYWASIRESGVPDRFTGSGSGTFFTLTISSLQAEDVAVYYCQNDYNYPFTFGQGTKLEIK . 2.6

All figures here come from patent EP2586797A2.
